This section presents IC50 values reported for UniProt:P07550 in the literature.
In plain terms, low IC50, meaning strictly below 400 nM, gives condition met, and everything else gives condition not met.

CC(C)C(=O)Nc1ccc(S(=O)(=O)Nc2ccc(CCNC[C@H](O)COc3ccc(O)cc3)cc2)cc1: condition not met
OCc1cc(C(O)CNC2CCC(CC3CCC(NCC(O)c4ccc(O)c(CO)c4)CC3)CC2)ccc1O (stereo not given): condition not met
O=S(=O)(Nc1ccc(CCNC[C@H](O)COc2ccc(O)cc2)cc1)c1ccc(Br)cc1: condition met
OCc1cc(C(O)CNCCCCCCNCC(O)c2ccc(O)c(CO)c2)ccc1O (stereo not given): condition not met
CCCCCCc1ccnc(N2CCc3cc(S(=O)(=O)Nc4ccccc4)ccc32)n1: condition not met
